measure: melting point

For orientation, consider the following solved cases.
>>> readout_value("CCOC(Cc1ccc(OCCCc2nc(C(C)(C)C)oc2CC)c2ccsc12)C(=O)O (racemic)")
"94 to 95 °C"
>>> readout_value("CCOC(Cc1ccc(OCCCc2nc(C(CC)CC)oc2C)c2ccsc12)C(=O)O (racemic)")
"54 to 56 °C"
>>> readout_value("CCCOC(Cc1ccc(OCc2nc(C3CC3)oc2C)c2ccsc12)C(=O)O (centres unmarked)")
"88 to 89 °C"
>>> readout_value("CCOC(Cc1ccc(OCCc2nc(C(C)(C)C)oc2C)c2ccsc12)C(=O)O (centres unmarked)")
"152 to 153 °C"
>>> readout_value("CCO[C@@H](Cc1ccc(OCCc2nc(C(C)(C)C)oc2C)c2ccsc12)C(=O)O")
"155 to 156 °C"
>>> readout_value("CCOC(Cc1ccc(OCc2nc(C3CC3)oc2C)c2ccccc12)C(=O)O (centres unmarked)")
"166 to 168 °C"
>>> readout_value("COC(Cc1cc(C)c(OCCc2nc(C(C)(C)C)oc2C)c(C)c1)C(=O)O (centres unmarked)")
"78 to 80 °C"

Now take the following molecule into account.
What does the data say about its melting point? Entry: CCOC(Cc1ccc(OCc2nc(C(C)(C)C)oc2C)c(C)c1)C(=O)O (centres unmarked)
95 to 97 °C
